The measured values listed here are drawn from patent US12528814B2.

Some compounds, each annotated with its measured IC50.
testedSystem: IRAK4 (Homo sapiens (Human))
Sequence (Q9NWZ3 whole entry, species assumed): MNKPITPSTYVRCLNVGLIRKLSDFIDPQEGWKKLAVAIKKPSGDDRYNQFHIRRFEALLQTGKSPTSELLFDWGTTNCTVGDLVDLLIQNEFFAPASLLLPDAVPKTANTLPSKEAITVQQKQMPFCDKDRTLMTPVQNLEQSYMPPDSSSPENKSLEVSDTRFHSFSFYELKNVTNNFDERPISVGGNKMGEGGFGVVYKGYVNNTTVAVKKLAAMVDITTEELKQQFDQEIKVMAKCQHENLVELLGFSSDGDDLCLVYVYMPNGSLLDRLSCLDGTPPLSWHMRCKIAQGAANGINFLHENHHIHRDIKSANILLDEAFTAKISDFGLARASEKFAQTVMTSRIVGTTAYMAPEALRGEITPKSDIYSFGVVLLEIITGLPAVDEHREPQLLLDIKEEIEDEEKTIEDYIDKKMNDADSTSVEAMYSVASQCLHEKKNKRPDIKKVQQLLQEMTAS
experimentNotes: IRAK4 Biochemical HTRF Kinase Assay
testSettings: Table 4; read-out: IRAK4 HTRF biochemical: IC50

compound: CN[C@@H](C)C(=O)N[C@H](C(=O)N1CCC[C@H]1c1nc(C(=O)c2cccc(OCCOCCOCCOCCC(=O)N3CCN(c4nnc(-c5cnc(-c6ccc7cc(C#N)cnn67)cc5NC(C)C)s4)CC3)c2)cs1)C1CCCCC1 [Example 55]
readoutUnit: nM
IC50: 6.6

compound: CNc1cc(-c2ccc3cc(C#N)cnn23)ncc1-c1nnc([C@H]2CC[C@H](NC(=O)CCCCCNc3ccc4c(c3)C(=O)N(C3CCC(=O)NC3=O)C4=O)CC2)s1 (some centres unmarked) [Example 68]
readoutUnit: nM
IC50: 1.79

compound: CNc1cc(-c2ccc3cc(C#N)cnn23)ncc1-c1nnc([C@H]2CC[C@H](NC(=O)CCOCCNc3ccc4c(c3)C(=O)N(C3CCC(=O)NC3=O)C4=O)CC2)s1 (some centres unmarked) [Example 63]
readoutUnit: nM
IC50: 0.7

compound: CN[C@@H](C)C(=O)N[C@H](C(=O)N1C[C@@H](NC(=O)CCCCCCCCCCC(=O)N2CCN(c3nnc(-c4cnc(-c5ccc6cc(C#N)cnn56)cc4NC(C)C)s3)CC2)C[C@H]1C(=O)N[C@@H]1CCCc2ccccc21)C1CCCCC1 [Example 53]
readoutUnit: nM
IC50: 5.8

compound: CNc1cc(-c2ccc3cc(C#N)cnn23)ncc1-c1nnc([C@H]2CC[C@H](NC(=O)CCCCCC(=O)N[C@H](C(=O)N3C[C@H](O)C[C@H]3C(=O)N[C@@H](C)c3ccc(-c4scnc4C)cc3)C(C)(C)C)CC2)s1 [Example 62]
readoutUnit: nM
IC50: 1.51
